Molecular target: MLE dsRBD1,2 (UniProt P24785 1-257)
Sequence (P24785 1-257): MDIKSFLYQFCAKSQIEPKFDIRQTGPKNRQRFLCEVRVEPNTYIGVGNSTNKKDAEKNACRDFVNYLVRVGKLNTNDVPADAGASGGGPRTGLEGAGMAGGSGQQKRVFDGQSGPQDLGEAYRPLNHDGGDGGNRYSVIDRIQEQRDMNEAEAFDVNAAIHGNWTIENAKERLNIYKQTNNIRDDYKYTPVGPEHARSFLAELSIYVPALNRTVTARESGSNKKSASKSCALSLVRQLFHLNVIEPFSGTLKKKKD
Assay: ITC; n=0.84; Filter binding: 20 mM HEPES/NaOH pH 8.0, 150 mM NaCl, 5 mM MgCl2, on ice; ITC: 10 mM HEPES pH 8.0, 75 mM NaCl, 2.5 mM MgCl2, 1 mM b-mercaptoethanol, 20 C; NMR:
Conditions: protein: recombinant; tags: N-terminal His6 removed by TEV; blunt, internal A-C mismatch and G-U pairs
quantityName: pKd
Please treat pKd as minus the base-10 logarithm of the molar concentration.

Give the measured pKd of SL7 18mer duplex (dsRNA) RNA 1: AGACGUGUAAAAUGUUGC RNA 2: GUAACGUUUUACGCGCCU .
5.50
